target.under.test: human His-PIM1 [2-313] (Homo sapiens, UniProt P11309)
Construct: purified human His-PIM1 [2-313] enzyme; His (N); purchased University of Dundee, Scotland; host or cells: baculovirus system
Sequence (P11309 2-313): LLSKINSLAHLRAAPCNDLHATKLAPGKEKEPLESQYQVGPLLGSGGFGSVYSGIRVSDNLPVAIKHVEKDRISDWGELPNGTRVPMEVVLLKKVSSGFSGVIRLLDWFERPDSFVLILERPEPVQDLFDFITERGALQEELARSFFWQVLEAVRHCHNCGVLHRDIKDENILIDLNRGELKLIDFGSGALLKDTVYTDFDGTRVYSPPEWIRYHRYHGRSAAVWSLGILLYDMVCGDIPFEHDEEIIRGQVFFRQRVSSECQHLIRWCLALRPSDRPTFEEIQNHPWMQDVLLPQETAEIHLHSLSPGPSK
assay.summary: PIM1 in-vitro mobility shift assay (Caliper LC3000, FL-Ahx-Bad phosphorylation)
Assay type: biochemical
condition.parameters: 1.5 h; percent inhibition at 0.3 uM compound; read-out: PIM1 % I at 0.3 uM
test.readout: inhibition at 0.3 µM (%)

Example results:
molecule	inhibition at 0.3 µM (%)
CC(=O)NCC(=O)N[C@H]1CCN(c2c(Cl)cccc2/C=C2\SC(=O)NC2=O)C1	74.3
Cn1ccc(C(=O)N[C@H]2CCN(c3c(Cl)cccc3/C=C3\SC(=O)NC3=O)C2)n1	55.1
COc1cc(/C=C2\SC(=O)NC2=O)c(N2CCC(CO)CC2)cc1OC	74

A: COc1ccc(OCCCN)c(C=C2SC(=O)NC2=O)c1 [Example 129C]
B: O=C1NC(=O)/C(=C/c2cccc(OCCCN3CCCCC3)c2)S1 [Example 84D]
C: COc1cc(N)c(/C=C2\SC(=O)NC2=O)cc1OC
D: CN(C)CCN(C)c1ccccc1/C=C1\SC(=O)NC1=O
Please produce an ascending ranking of these molecules based on inhibition at 0.3 µM. Write the labels, ordered according to the request.
C, B, D, A

###

target.under.test: human His-PIM2 [23-299] (Homo sapiens)
Construct: purified human His-PIM2 [23-299] enzyme; His (N); host or cells: E. coli
assay.summary: PIM2 in-vitro mobility shift assay (Caliper LC3000, FL-Ahx-Bad phosphorylation)
Type: biochemical
condition.parameters: 1.5 h; percent inhibition at 0.3 uM compound; read-out: PIM2 % I at 0.3 uM
Counter-ions that a name gives are not always drawn.
test.readout: inhibition at 0.3 µM (%)

molecule	inhibition at 0.3 µM, %
O=C1NC(=O)/C(=C/c2cccc(Cl)c2N2CCC[C@@H](NCCO)C2)S1	93.4
NCCC(=O)N1CCCN(c2ccccc2/C=C2\SC(=O)NC2=O)CC1 [Example 105, hydrochloride]	92.4
NCc1cccc(C(=O)N2CCN(c3ccccc3/C=C3\SC(=O)NC3=O)CC2)c1 [Example 110, hydrochloride]	90.7

a: N[C@H]1CCN(c2ccc(C(F)(F)F)cc2/C=C2\SC(=O)NC2=O)C1 [Example 88, hydrochloride]
b: O=C1NC(=O)/C(=C/c2cccnc2N2CCNCC2)S1 [Example 89, hydrochloride]
Which has the smaller recorded inhibition at 0.3 µM, a or b ? # reply format: chosen label
b
(b: 21.5%, a: 88.4%)

P: COc1ccc(OCCN2CCCCC2)c(/C=C2\SC(=O)NC2=O)c1
Q: COc1cc(/C=C2\SC(=O)NC2=O)c(N2CCC(N(C)C)C2)cc1OC (stereo not drawn)
Between these two entries, P and Q , state which has the higher inhibition at 0.3 µM. # reply format: chosen label
Q

P: O=C1NC(=O)/C(=C/c2ccccc2N2CCCNCC2)S1 [Example 106, hydrochloride]
Q: COc1cc(N)c(/C=C2\SC(=O)NC2=O)cc1OC
Which has the smaller recorded inhibition at 0.3 µM, P or Q ? # reply format: chosen label
Q

###

Measured inhibition at 0.3 µM, listed per entry for reference.
target.under.test: human His-PIM2 [23-299] (Homo sapiens)
Construct: purified human His-PIM2 [23-299] enzyme; His (N); host or cells: E. coli
assay.summary: PIM2 in-vitro mobility shift assay (Caliper LC3000, FL-Ahx-Bad phosphorylation)
Type: biochemical
condition.parameters: 1.5 h; percent inhibition at 0.3 uM compound; read-out: PIM2 % I at 0.3 uM
Where a name gives a salt, the structure may show the parent alone.

Example results:
compound	inhibition at 0.3 µM
N[C@H]1CN(c2c(Cl)cccc2/C=C2\SC(=O)NC2=O)C[C@@H]1O [Example 122T, hydrochloride]	> 95%
COc1cc(/C=C2\SC(=O)NC2=O)c(N(C)CCN(C)C)cc1OC	80.6%
N[C@H]1CN(c2c(Cl)cccc2/C=C2\SC(=O)NC2=O)CC[C@@H]1O (racemic) [Example 122M, hydrochloride]	> 95%
N[C@H]1CCN(c2c(/C=C3\SC(=O)NC3=O)cccc2OCC(F)(F)F)C1 [Example 122Z, hydrochloride]	> 95%
CCOc1cccc(/C=C2\SC(=O)NC2=O)c1N1CC[C@H](N)C1 [Example 122Q, hydrochloride]	> 95%

Find inhibition at 0.3 µM (human His-PIM2 [23-299] (Homo sapiens)) for the entry NCCCN[C@@H]1CCCN(c2c(Cl)cccc2/C=C2\SC(=O)NC2=O)C1 [Example 129B]
> 95%

Try `CN(C)[C@H]1CCN(c2c(Cl)cccc2/C=C2\SC(=O)NC2=O)C1` next.
92.9%

Try CN1CCN(c2ccccc2/C=C2\SC(=O)NC2=O)CC1 [Example 84A] next.
54.3%

###

target.under.test: human His-PIM2 [23-299] (Homo sapiens, UniProt Q9P1W9)
Construct: purified human His-PIM2 [23-299] enzyme; His (N); host or cells: E. coli
Sequence (Q9P1W9 23-299): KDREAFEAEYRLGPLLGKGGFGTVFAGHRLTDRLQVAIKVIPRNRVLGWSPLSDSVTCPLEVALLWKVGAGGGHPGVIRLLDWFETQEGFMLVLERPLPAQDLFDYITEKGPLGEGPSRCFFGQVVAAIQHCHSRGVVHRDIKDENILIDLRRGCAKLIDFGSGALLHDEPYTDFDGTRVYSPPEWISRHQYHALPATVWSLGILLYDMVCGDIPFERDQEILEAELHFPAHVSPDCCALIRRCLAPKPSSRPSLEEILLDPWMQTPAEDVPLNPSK
assay.summary: PIM2 in-vitro mobility shift assay (Caliper LC3000, FL-Ahx-Bad phosphorylation)
Format: biochemical
condition.parameters: 1.5 h; percent inhibition at 0.3 uM compound; read-out: PIM2 % I at 0.3 uM
test.readout: inhibition at 0.3 µM (%)

Example results:
compound	unit.string	result
CN(C)C(=O)CCC(=O)N[C@H]1CCN(c2c(Cl)cccc2/C=C2\SC(=O)NC2=O)C1	%	21.2
COc1cc(/C=C2\SC(=O)NC2=O)c(N2CCC(NC(=O)CCN)C2)cc1OC (centres unmarked)	%	49

P: O=C1NC(=O)/C(=C/c2cc(C(F)(F)F)cc(Cl)c2N2CCC(N3CCCC3)CC2)S1
Q: O=C1NC(=O)/C(=C/c2cc(C(F)(F)F)cc(Cl)c2N2CCC(N3CCOCC3)CC2)S1
Between these two entries, P and Q , state which has the higher inhibition at 0.3 µM. # reply format: chosen label
P

###

target.under.test: human His-PIM2 [23-299] (Homo sapiens, UniProt Q9P1W9)
Construct: purified human His-PIM2 [23-299] enzyme; His (N); host or cells: E. coli
assay.summary: PIM2 in-vitro mobility shift assay (Caliper LC3000, FL-Ahx-Bad phosphorylation)
Assay type: biochemical
condition.parameters: 1.5 h; percent inhibition at 0.3 uM compound; read-out: PIM2 % I at 0.3 uM
test.readout: inhibition at 0.3 µM (%)

Example results:
molecule	inhibition at 0.3 µM, %
CN(C)[C@H]1CCN(c2ccc(Br)cc2C=C2SC(=O)NC2=O)C1 [Example 84M]	80.9
COc1ccc(OCCN2CCOCC2)c(/C=C2\SC(=O)NC2=O)c1	17.5
CC(=O)N1CCN(c2ccccc2/C=C2\SC(=O)NC2=O)CC1	45.5

A: COc1cc(/C=C2\SC(=O)NC2=O)c(N2CCC(CO)CC2)cc1OC
B: Cc1ccc(C=C2SC(=O)NC2=O)c(N2CC[C@H](N(C)C)C2)c1 [Example 84J]
Which has the smaller recorded inhibition at 0.3 µM, A or B ? # reply format: chosen label
A
(A: 25.1%, B: 40.4%)

###

target.under.test: human His-PIM2 [23-299] (Homo sapiens)
Construct: purified human His-PIM2 [23-299] enzyme; His (N); host or cells: E. coli
assay.summary: PIM2 in-vitro mobility shift assay (Caliper LC3000, FL-Ahx-Bad phosphorylation)
Format: biochemical
condition.parameters: 1.5 h; percent inhibition at 0.3 uM compound; read-out: PIM2 % I at 0.3 uM
Counter-ions that a name gives are not always drawn.
test.readout: inhibition at 0.3 µM (%)

Example results:
molecule	test.readout	unit.string	result
COc1cc(/C=C2\SC(=O)NC2=O)c(N2CCC(O)C2)cc1OC (centres unmarked)	inhibition at 0.3 µM	%	14.3
O=C1NC(=O)/C(=C/c2cc(C(F)(F)F)cc(Cl)c2N2CCN(CCN3CCOCC3)CC2)S1	inhibition at 0.3 µM	%	19.1
O=C1NC(=O)/C(=C/c2ccc3cc[nH]c3c2)S1 [Example 79, trifluoroacetate]	inhibition at 0.3 µM	%	60.7
COc1cccc(/C=C2\SC(=O)NC2=O)c1N1CCNCC1 [Example 97, hydrochloride]	inhibition at 0.3 µM	%	86.4

1: CN(C)[C@H]1CCN(c2c(Cl)cc(C(F)(F)F)cc2/C=C2\SC(=O)NC2=O)C1
2: COc1ccc(N2CCC(N(C)C)C2)c(/C=C2\SC(=O)NC2=O)c1 (centres unmarked)
Which has the smaller recorded inhibition at 0.3 µM, 1 or 2 ? # reply format: chosen label
2

###

target.under.test: human His-PIM2 [23-299] (Homo sapiens, UniProt Q9P1W9)
Construct: purified human His-PIM2 [23-299] enzyme; His (N); host or cells: E. coli
assay.summary: PIM2 in-vitro mobility shift assay (Caliper LC3000, FL-Ahx-Bad phosphorylation)
Assay type: biochemical
condition.parameters: 1.5 h; percent inhibition at 0.3 uM compound; read-out: PIM2 % I at 0.3 uM
Text: PIM2 In-Vitro Mobility Shift Assay One may determine the activity of purified human His-PIM2 [23-299] enzyme in-vitro using a mobility shift assay on a Caliper LC3000 reader (Caliper, Mass.), which measures fluorescence of a phosphorylated and unphosphorylated FL-Ahx-Bad (FITC-(AHX)RSRHSSYPAGT-COOH, Primm 200606-00289, Primm Biotech, Mass.) and calculates a ratiometric value to determine percent turnover. […]
Where a name gives a salt, the structure may show the parent alone.
test.readout: inhibition at 0.3 µM

compound	target.under.test	test.readout	result
NC1CCN(c2c(Cl)cc(C(F)(F)F)cc2/C=C2\SC(=O)NC2=O)CC1	human His-PIM2 [23-299] (Homo sapiens, UniProt Q9P1W9)	inhibition at 0.3 µM	58%
O=C1NC(=O)/C(=C/c2ccccc2N2CCN(C(=O)C3CNC3)CC2)S1 [Example 117, hydrochloride]	human His-PIM2 [23-299] (Homo sapiens, UniProt Q9P1W9)	inhibition at 0.3 µM	> 95%
NCCN1CCN(c2ccccc2/C=C2\SC(=O)NC2=O)CC1 [Example 112, hydrochloride]	human His-PIM2 [23-299] (Homo sapiens, UniProt Q9P1W9)	inhibition at 0.3 µM	> 95%

Let us move to another entry and its inhibition at 0.3 µM.
Find inhibition at 0.3 µM (human His-PIM2 [23-299] (Homo sapiens, UniProt Q9P1W9)) for the entry NC(=O)c1ccc(N2CCC[C@@H](N)C2)c(/C=C2\SC(=O)NC2=O)c1 [Example 122AE, hydrochloride]
> 95%
